# assaySystem: T1, Factor VIIIa (FVIIIa), from recombinant FVIII (Kogenate FS; Bayer healthcare) activated with alpha-thrombin (UniProt P00451 20-2351)
# T1 sequence (looked up): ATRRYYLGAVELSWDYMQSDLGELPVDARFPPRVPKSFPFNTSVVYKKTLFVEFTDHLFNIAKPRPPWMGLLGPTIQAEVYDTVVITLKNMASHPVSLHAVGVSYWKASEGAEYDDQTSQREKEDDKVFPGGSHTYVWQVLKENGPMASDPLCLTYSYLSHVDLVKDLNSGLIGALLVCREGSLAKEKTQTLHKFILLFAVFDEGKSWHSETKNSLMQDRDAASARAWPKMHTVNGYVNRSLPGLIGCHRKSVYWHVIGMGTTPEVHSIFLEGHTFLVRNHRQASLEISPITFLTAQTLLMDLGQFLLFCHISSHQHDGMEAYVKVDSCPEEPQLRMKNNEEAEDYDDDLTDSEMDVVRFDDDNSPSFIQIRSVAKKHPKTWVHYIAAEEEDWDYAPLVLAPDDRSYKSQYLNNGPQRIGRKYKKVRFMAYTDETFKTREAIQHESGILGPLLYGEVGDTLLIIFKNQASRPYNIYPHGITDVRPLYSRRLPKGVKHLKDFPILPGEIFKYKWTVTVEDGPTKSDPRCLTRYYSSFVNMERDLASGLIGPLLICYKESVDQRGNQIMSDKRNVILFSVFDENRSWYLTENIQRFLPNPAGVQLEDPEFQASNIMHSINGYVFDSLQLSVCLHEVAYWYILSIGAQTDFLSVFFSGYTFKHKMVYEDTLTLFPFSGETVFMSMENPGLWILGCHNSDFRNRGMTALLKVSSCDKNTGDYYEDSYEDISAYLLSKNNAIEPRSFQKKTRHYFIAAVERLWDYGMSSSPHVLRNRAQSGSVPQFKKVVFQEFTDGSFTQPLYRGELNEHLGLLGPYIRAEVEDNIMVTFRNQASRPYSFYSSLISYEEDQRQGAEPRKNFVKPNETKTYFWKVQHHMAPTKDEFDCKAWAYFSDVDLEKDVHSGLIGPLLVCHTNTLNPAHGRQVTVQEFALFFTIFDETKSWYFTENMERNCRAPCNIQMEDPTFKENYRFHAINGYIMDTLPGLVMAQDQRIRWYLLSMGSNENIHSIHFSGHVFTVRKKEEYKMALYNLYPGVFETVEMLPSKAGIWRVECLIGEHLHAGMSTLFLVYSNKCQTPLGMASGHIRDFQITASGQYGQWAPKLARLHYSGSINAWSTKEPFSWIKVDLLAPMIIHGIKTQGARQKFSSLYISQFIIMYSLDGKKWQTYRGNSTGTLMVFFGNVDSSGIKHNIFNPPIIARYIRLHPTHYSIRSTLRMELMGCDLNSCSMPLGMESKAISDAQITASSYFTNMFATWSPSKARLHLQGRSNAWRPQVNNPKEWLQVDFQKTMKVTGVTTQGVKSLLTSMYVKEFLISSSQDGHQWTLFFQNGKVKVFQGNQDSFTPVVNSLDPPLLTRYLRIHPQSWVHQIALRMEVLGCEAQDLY
# experimentNotes: apparent functional KD (KD-app): FX activation rate vs FVIIIa titration, fluorogenic Xase assay with PC/PS vesicles and Ca2+
Please assign label 0 whenever Kd is at or above 60 nM, and label 1 whenever it is below.

## Input Kd under 60 nM? Item: FIXa variant D104N/K106S/K247N/N249S/N260S (enzyme) light: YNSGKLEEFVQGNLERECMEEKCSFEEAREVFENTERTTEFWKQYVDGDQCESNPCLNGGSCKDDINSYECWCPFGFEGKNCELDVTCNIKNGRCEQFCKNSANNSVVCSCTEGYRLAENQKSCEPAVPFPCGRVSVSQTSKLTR heavy: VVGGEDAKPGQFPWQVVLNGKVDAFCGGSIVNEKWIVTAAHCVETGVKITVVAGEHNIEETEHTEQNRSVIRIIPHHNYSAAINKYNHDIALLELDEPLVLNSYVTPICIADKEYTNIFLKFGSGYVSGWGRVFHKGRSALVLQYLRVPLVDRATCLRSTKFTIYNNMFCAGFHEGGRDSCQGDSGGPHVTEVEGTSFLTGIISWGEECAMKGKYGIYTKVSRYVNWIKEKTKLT
## Output label 0

## Input Kd under 60 nM? Item: FIXa variant K228N/K247N/N249S (enzyme, also called K63N/K82N/N84S) light: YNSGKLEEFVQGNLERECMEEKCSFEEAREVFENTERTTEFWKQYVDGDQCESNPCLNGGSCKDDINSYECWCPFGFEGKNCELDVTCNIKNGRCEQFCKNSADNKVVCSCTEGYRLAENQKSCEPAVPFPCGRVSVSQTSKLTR heavy: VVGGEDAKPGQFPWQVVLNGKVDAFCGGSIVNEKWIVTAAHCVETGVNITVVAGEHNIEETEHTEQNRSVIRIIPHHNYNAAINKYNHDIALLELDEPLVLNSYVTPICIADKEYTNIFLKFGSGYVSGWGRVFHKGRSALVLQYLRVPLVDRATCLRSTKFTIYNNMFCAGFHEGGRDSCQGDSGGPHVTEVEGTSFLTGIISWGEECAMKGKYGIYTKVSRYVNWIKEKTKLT
## Output label 0

## Input Kd under 60 nM? Item: FIXa variant D104N/K106S/I251S/R318Y/R338E/R403E/E410N (enzyme) light: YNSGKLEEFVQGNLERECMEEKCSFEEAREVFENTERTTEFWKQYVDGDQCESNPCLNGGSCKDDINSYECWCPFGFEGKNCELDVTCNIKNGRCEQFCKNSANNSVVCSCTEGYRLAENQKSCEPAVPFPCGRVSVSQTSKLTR heavy: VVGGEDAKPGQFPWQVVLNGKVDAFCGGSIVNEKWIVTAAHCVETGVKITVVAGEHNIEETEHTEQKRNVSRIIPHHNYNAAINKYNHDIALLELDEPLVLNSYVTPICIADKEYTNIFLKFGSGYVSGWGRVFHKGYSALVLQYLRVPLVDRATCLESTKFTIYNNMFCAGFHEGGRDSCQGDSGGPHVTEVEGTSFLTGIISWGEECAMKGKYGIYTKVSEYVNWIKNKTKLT
## Output label 1

## Input Kd under 60 nM? Item: FIXa variant Y155F/K228N/R318Y/R338E/R403E/E410N (enzyme) light: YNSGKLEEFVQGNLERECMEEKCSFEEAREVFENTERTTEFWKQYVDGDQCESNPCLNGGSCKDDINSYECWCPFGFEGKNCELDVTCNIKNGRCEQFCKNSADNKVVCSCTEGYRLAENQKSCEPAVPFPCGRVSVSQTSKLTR heavy: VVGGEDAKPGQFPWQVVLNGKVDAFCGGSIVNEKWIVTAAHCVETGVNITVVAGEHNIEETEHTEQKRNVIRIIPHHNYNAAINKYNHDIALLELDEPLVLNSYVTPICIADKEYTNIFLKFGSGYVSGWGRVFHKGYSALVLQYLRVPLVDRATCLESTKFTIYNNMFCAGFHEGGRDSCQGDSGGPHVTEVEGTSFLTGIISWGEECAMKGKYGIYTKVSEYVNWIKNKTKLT
## Output label 1
